Data provenance: patent US20050169994A1

Test: pH-solubility profile for carvedilol
Settings: aqueous medium
observed.property: solubility thermodynamic

                                   compound       result
0  COc1ccccc1OCCNCC(O)COc1cccc2[nH]c3ccccc3c12 (stereo not shown)  ≤ 100 µg/mL
